Target: recombinant murine VEGF164 (mouse) (UniProt Q00731)
Experiment: Biacore SPR, VEGF immobilized, pH 5
Reported kon values are given for each entry in this list.
State just the number; it will be interpreted in M⁻¹ s⁻¹.

binder	quantity-measured	unit-of-measure	measured-result
578-max (scFv, also called EP578max; #821) scFv: EIVMTQSPSTLSASVGDRVIITCQASEIIHSWLAWYQQKPGKAPKLLIYLASTLASGVPSRFSGSGSGTQFTLTISSLQPDDFATYYCQNVYLASTNGANFGQGTKLTVLGGGGGSGGGGSGGGGSGGGGSEVQLVESGGGLVQPGGSLRLSCTASGFSLTDYYYMTWVRQAPGKGLEWVGFIDPDDDPYYATWAKGRFTISRDTSKNTVYLQMNSLRAEDTAVYYCAGGDHNSGWGLDIWGQGTLVTVSS	kon	M⁻¹ s⁻¹	1.03e+06

With those in mind, consider the next binder.
[Q] Kindly indicate its recorded kon. Item: 509-min (scFv, VL and VH tied by name; also called Protein Nr; 854) scFv: EIVMTQSPSTLSASVGDRVIITCQASQNIRIWLSWYQQKPGKAPKLLIYKASTLESGVPSRFSGSGSGAEFTLTISSLQPDDFATYYCQNNAHYSTNGGTFGQGTKLTVLGGGGGSGGGGSGGGGSGGGGSEVQLVESGGGLVQPGGSLRLSCAASGFSLSSYYMCWVRQAPGKGLEWVSCLDYVGDTDYASWAKGRFTISRDNSKNTLYLQMNSLRAEDTAVYYCAKTDDSRGWGLNIWGQGTLVTVSS
[A] 614000

Recorded values, source patent US20150274820A1.
